Reference for the values: ChEMBL document CHEMBL2203120

Tested on: Staphylococcus aureus
ASSAY SUMMARY: Antimicrobial activity against methicillin-resistant Staphylococcus aureus H 5996/08 after 48 hrs by broth microdilution method
Format: functional
CONDITION: H 5996/08, 48 h
Where a SMILES comes first, the peptide text is derived from it. Bridges are numbered along the chain shown (N, C = ends). [ ]: non-standard residue; d: D form. The star is where a group is joined. Ileψ(thiazoline)Cys = CC[C@H](C)[C@H](N)C1=N[C@H](C(=O)*)CS1; dOrn = NCCC[C@@H](N)C(=O)O
PARAMETER: MIC90 (µM)
One number for each entry, in µM.

Below are worked cases with known answers.
| COMPOUND | PARAMETER | VALUE UNITS | NUMERIC VALUE |
| --- | --- | --- | --- |
| Oc1cc(O)cc(/C=C/c2ccc3c(Cl)cc(Cl)c(O)c3n2)c1 | MIC90 | µM | 125 |
| Oc1ccc(/C=C/c2ccc3cccc(O)c3n2)c(O)c1 | MIC90 | µM | 62.5 |
| Oc1ccc(/C=C/c2ccc3c(Cl)cc(Cl)c(O)c3n2)c(O)c1 | MIC90 | µM | 62.5 |
| CC[C@H](C)[C@H](N)C1=N[C@H](C(=O)N[C@@H](CC(C)C)C(=O)N[C@H](CCC(=O)O)C(=O)N[C@H](C(=O)N[C@H]2CCCCNC(=O)[C@H](CC(N)=O)NC(=O)[C@@H](CC(=O)O)NC(=O)[C@H](Cc3cnc[nH]3)NC(=O)[C@@H](Cc3ccccc3)NC(=O)[C@H]([C@@H](C)CC)NC(=O)[C@@H](CCCN)NC2=O)[C@@H](C)CC)CS1 [BACITRACIN] ({Ileψ(thiazoline)Cys}-L[dE]IK[dOrn]I[dF]H[dD]N; lactam 4-C) | MIC90 | µM | 31.6 |

Task: Form field: reported MIC90 of `Oc1ccc(/C=C/c2ccc3c(Cl)cc(Cl)c(O)c3n2)cc1O`
Result: 62.5

* * *

Test system: Trichosporon beigelii
ASSAY SUMMARY: Antimicrobial activity against Trichosporon beigelii 1188 after 24 hrs by broth microdilution test
Type: functional
CONDITION: Trichosporon beigelii, 1188, 24 h
PARAMETER: MIC80 (µM)
One number for each entry, in µM.

| COMPOUND STRUCTURE | MIC80, µM |
| --- | --- |
| CCOc1ccccc1/C=C/c1ccc2c(Cl)cc(Cl)c(O)c2n1 | 0.49 |

Next up:
Task: Item `Oc1ccccc1/C=C/c1ccc2cccc(O)c2n1` has what recorded MIC80?
Result: 31.2

* * *

Test system: Staphylococcus aureus
ASSAY SUMMARY: Antimicrobial activity against methicillin-resistant Staphylococcus aureus H 5996/08 after 48 hrs by broth microdilution method
Assay type: functional
CONDITION: H 5996/08, 48 h
PARAMETER: MIC90 (µM)
One number for each entry, in µM.

Some entries whose results are on file:
| COMPOUND | MIC90 (µM) |
| --- | --- |
| O=C(O)c1cn(C2CC2)c2cc(N3CCNCC3)c(F)cc2c1=O [CIPROFLOXACIN] | 500 |
| CCOc1ccccc1/C=C/c1ccc2c(Cl)cc(Cl)c(O)c2n1 | 7.81 |
| Oc1c(Cl)cc(Cl)c2ccc(/C=C/c3ccc(/C=C/c4ccc5c(Cl)cc(Cl)c(O)c5n4)cc3)nc12 | 125 |
| CC1(C)S[C@@H]2[C@H](NC(=O)COc3ccccc3)C(=O)N2[C@H]1C(=O)O [PENICILLIN V] | 125 |

Now let's try a different one.
Task: Query MIC90 on Staphylococcus aureus for `CCOc1ccc(/C=C/c2ccc3c(Cl)cc(Cl)c(O)c3n2)cc1`
Result: 125
